These entries and their values trace back to paper PMC8617944.

assay: Acute toxicity, up-and-down OECD method (Guideline 425); assay type: in vivo; details: both sexes, rat, in vivo, ip, Wistar rats; read-out: Median lethal dose (LD50)
assay_metric: LD50 at 14 days

Measured LD50 at 14 days, O=C(/C=C(/Br)C(=O)O)Nc1ccc(O)c(C(=O)O)c1 : > 1100 mg/kg

----------
experiment: Distribution of C1 in tissues; assay type: in vivo, Wistar rats; settings: male, Wistar, rat, muscle, po, 75 mg/kg, Muscle, 10 min, p.o. 75 mg/kg, n = 3; read-out: Average Concentration
assay_metric: concentration at 10 min (ng/mL)
Numbers only, in ng/mL.

get_value(item= O=C(/C=C(/Br)C(=O)O)Nc1ccc(O)c(C(=O)O)c1 , readout=concentration at 10 min) returns 4700
